Target: Thioredoxin Reductase + Thioredoxin (Bos taurus, UniProt O97680)
Sequence (O97680 1-105): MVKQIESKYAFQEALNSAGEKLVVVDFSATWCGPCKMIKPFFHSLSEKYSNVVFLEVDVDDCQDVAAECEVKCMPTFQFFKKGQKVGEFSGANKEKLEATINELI
Assay: NADPH oxidation at 340 nm, coupled thioredoxin (TX)/thioredoxin reductase (TXR)/NADPH system
Format: biochemical, bovine
Conditions: Disulfide 0.5 mM; minimum of triplicate assays
Cut-off 10 nmol/min/mL on NADPH Oxidation, Thioredoxin Reductase + Thioredoxin: below means rule met, at or above means rule not met.

The examples below pair each entry with its known result.
- NC(CSSCCS(=O)(=O)O)C(=O)O (stereo not drawn): rule not met
- N[C@@H](CCC(=O)N[C@@H](CSSCCS(=O)(=O)O)C(=O)NCC(=O)O)C(=O)O: rule not met
- O=S(=O)([O-])CCSSCCS(=O)(=O)[O-].[Na+].[Na+]: rule not met
- NC(CCC(=O)NC(CSSCCS(=O)(=O)O)C(=O)O)C(=O)O (stereo not drawn): rule met

Please indicate whether the reported NADPH Oxidation, Thioredoxin Reductase + Thioredoxin of NC(CCSSCCS(=O)(=O)O)C(=O)O (stereo not drawn) is strictly below 10 nmol/min/mL. rule met

Continue with "N[C@@H](CSSCCS(=O)(=O)O)C(=O)NCC(=O)O" rule not met

----------
Target: GR + GRX + GSH (coupled glutaredoxin/glutathione/glutathione reductase system) (Homo sapiens)
Sequence (P35754 1-106): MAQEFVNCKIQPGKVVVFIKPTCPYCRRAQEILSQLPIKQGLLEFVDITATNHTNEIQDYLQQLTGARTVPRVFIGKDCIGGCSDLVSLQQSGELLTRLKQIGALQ
Assay: NADPH oxidation, coupled GRX/GSH/GR system
Assay type: biochemical
Settings: Disulfide 0.5 mM; n = 6
test.readout: NADPH Oxidation, GR + GRX + GSH
Hey, just the number and the unit after it is fine.

Before answering, review these 5 worked examples.
• NC(CCC(=O)NC(CSSCCS(=O)(=O)O)C(=O)O)C(=O)O (stereo not drawn) = 37.0 ± 2.1 nmol/min/mL
• NC(CSSCCS(=O)(=O)O)C(=O)O (stereo not drawn) = 28.3 ± 2.0 nmol/min/mL
• N[C@@H](CSSCCS(=O)(=O)O)C(=O)NCC(=O)O = 22.0 ± 0.5 nmol/min/mL
• NC(CCSSCCS(=O)(=O)O)C(=O)O (stereo not drawn) = 10.7 ± 0.7 nmol/min/mL
• N[C@@H](CCC(=O)N[C@@H](CSSCCS(=O)(=O)O)C(=O)NCC(=O)O)C(=O)O = 71.0 ± 7.9 nmol/min/mL

// moving on: another record for NADPH Oxidation, GR + GRX + GSH
// returns reported NADPH Oxidation, GR + GRX + GSH for input "O=S(=O)([O-])CCSSCCS(=O)(=O)[O-].[Na+].[Na+]" 15.3 ± 1.0 nmol/min/mL

----------
Biological target: GR + GSH (Homo sapiens, UniProt P00390)
Sequence (P00390 44-522): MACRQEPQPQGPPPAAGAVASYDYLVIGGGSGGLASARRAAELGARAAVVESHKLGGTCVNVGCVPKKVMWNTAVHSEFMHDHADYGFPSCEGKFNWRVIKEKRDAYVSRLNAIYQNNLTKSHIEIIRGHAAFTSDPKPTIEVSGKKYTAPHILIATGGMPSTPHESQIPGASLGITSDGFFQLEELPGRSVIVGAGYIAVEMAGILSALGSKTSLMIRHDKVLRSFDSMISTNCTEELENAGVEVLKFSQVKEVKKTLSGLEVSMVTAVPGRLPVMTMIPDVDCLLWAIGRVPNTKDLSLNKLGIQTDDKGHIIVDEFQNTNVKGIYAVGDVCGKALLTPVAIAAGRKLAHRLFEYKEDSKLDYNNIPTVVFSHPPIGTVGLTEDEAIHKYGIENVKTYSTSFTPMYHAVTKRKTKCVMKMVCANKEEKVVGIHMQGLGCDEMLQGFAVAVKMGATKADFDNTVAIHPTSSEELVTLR
Test: NADPH oxidation, GR + GSH
Type: biochemical
Details: Disulfide 0.5 mM; n = 6
test.readout: NADPH Oxidation, GR + GSH (nmol/min/mL)
One number for each entry, in nmol/min/mL.

Before answering, review these 2 worked examples.
- NC(CSSCCS(=O)(=O)O)C(=O)O (stereo not drawn): 4.1
- NC(CCC(=O)NC(CSSCCS(=O)(=O)O)C(=O)O)C(=O)O (stereo not drawn): 2.4

Take each entry in turn and give its NADPH Oxidation, GR + GSH.
1. NC(CCSSCCS(=O)(=O)O)C(=O)O (stereo not drawn)
2. O=S(=O)([O-])CCSSCCS(=O)(=O)[O-].[Na+].[Na+]
3. N[C@@H](CSSCCS(=O)(=O)O)C(=O)NCC(=O)O

1: 0.88; 2: 2.9; 3: 4.1

// returns reported NADPH Oxidation, GR + GSH for input "N[C@@H](CCC(=O)N[C@@H](CSSCCS(=O)(=O)O)C(=O)NCC(=O)O)C(=O)O" 11.3
